- condition info: cell viability/%
- Experimental: Each type of assay must be simplified and miniaturized to assess the activities of the library peptides in a 96-well format for the high-throughput screening. […] Mammalian cytotoxicity assay of bead-derived peptides . P388 cells were obtained from Institute of […] for 92 h, the numbers of viable cells were determined by […] at 37 °C. The absorbance of each well at 415 nm was measured using a Benchmark microplate reader (Bio-Rad). The cytotoxicities were evaluated as cell viability (%). […]
Where a SMILES comes first, the peptide text is derived from it. [ ]: non-standard residue; d: D form. The star is where a group is joined. NHCH2CH2OH = OCCN*; For = O=C*
observable: viability (%)
Quick reminder: number only, in %, skip the unit.

# count of solved cases: 3
[
  {
    "compound": "CC(C)C[C@@H](NC(=O)[C@H](Cc1c[nH]c2ccccc12)NC(=O)[C@H](NC(=O)[C@H](Cc1c[nH]c2ccccc12)NC(=O)[C@H](NC(=O)[C@@H](NC(=O)[C@H](NC(=O)[C@H](C)NC(=O)[C@H](NC(=O)[C@H](C)NC(=O)CNC(=O)[C@@H](NC=O)C(C)C)C(C)C)C(C)C)C(C)C)C(C)C)[C@H](C)O)C(=O)N[C@@H](Cc1c[nH]c2ccccc12)C(=O)N[C@@H](C(=O)N[C@@H](Cc1c[nH]c2ccccc12)C(=O)NCCO)C(C)C [compound 2066] (For-VGA[dV]A[dV]V[dV]W[dT]W[dL]W[dV]W-NHCH2CH2OH)",
    "unit": "%",
    "viability": 100
  },
  {
    "compound": "CC(C)C[C@@H](NC(=O)[C@H](C)NC(=O)CNC(=O)[C@@H](NC=O)C(C)C)C(=O)N[C@@H](C)C(=O)N[C@@H](C(=O)N[C@H](C(=O)N[C@@H](C(=O)N[C@@H](Cc1c[nH]c2ccccc12)C(=O)N[C@H](CC(C)C)C(=O)N[C@@H](Cc1c[nH]c2ccccc12)C(=O)N[C@H](CC(C)C)C(=O)N[C@@H](Cc1c[nH]c2ccccc12)C(=O)N[C@@H](C(=O)N[C@@H](Cc1c[nH]c2ccccc12)C(=O)NCCO)C(C)C)[C@H](C)O)C(C)C)C(C)C [compound 200] (For-VGA[dL]A[dV]V[dT]W[dL]W[dL]W[dV]W-NHCH2CH2OH)",
    "unit": "%",
    "viability": 100
  },
  {
    "compound": "CC(C)C[C@@H](NC(=O)[C@H](C)NC(=O)[C@H](NC(=O)[C@H](C)NC(=O)CNC(=O)[C@@H](NC=O)C(C)C)C(C)C)C(=O)N[C@H](C(=O)N[C@H](CC(C)C)C(=O)N[C@@H](Cc1c[nH]c2ccccc12)C(=O)N[C@@H](C(=O)N[C@@H](Cc1c[nH]c2ccccc12)C(=O)N[C@@H](C(=O)N[C@@H](Cc1c[nH]c2ccccc12)C(=O)N[C@@H](C(=O)N[C@@H](Cc1c[nH]c2ccccc12)C(=O)NCCO)[C@H](C)O)C(C)C)C(C)C)C(C)C [compound 6959] (For-VGA[dV]A[dL]V[dL]W[dV]W[dV]W[dT]W-NHCH2CH2OH)",
    "unit": "%",
    "viability": 100
  }
]

## Task Hello, please tell me recorded viability for this one: CC(C)C[C@@H](NC(=O)[C@H](C)NC(=O)[C@H](NC(=O)[C@H](C)NC(=O)CNC(=O)[C@@H](NC=O)C(C)C)[C@H](C)O)C(=O)N[C@H](C(=O)N[C@@H](C(=O)N[C@@H](Cc1c[nH]c2ccccc12)C(=O)N[C@H](CC(C)C)C(=O)N[C@@H](Cc1c[nH]c2ccccc12)C(=O)N[C@H](CC(C)C)C(=O)N[C@@H](Cc1c[nH]c2ccccc12)C(=O)N[C@@H](C(=O)N[C@@H](Cc1c[nH]c2ccccc12)C(=O)NCCO)C(C)C)C(C)C)C(C)C [compound 4605] (For-VGA[dT]A[dL]V[dV]W[dL]W[dL]W[dV]W-NHCH2CH2OH)
## Result 100

## Task Hello, please tell me recorded viability for this one: CC(C)C[C@@H](NC(=O)[C@H](C)NC(=O)[C@H](NC(=O)[C@H](C)NC(=O)CNC(=O)[C@@H](NC=O)C(C)C)C(C)C)C(=O)N[C@H](C(=O)N[C@H](CC(C)C)C(=O)N[C@@H](Cc1c[nH]c2ccccc12)C(=O)N[C@@H](C(=O)N[C@@H](Cc1c[nH]c2ccccc12)C(=O)N[C@@H](C(=O)N[C@@H](Cc1c[nH]c2ccccc12)C(=O)N[C@H](CC(C)C)C(=O)N[C@@H](Cc1c[nH]c2ccccc12)C(=O)NCCO)C(C)C)[C@H](C)O)C(C)C [compound 5572] (For-VGA[dV]A[dL]V[dL]W[dT]W[dV]W[dL]W-NHCH2CH2OH)
## Result 100

## Task Hello, please tell me recorded viability for this one: CC(C)C[C@@H](NC(=O)[C@H](Cc1c[nH]c2ccccc12)NC(=O)[C@H](NC(=O)[C@H](Cc1c[nH]c2ccccc12)NC(=O)[C@@H](CC(C)C)NC(=O)[C@H](Cc1c[nH]c2ccccc12)NC(=O)[C@@H](CC(C)C)NC(=O)[C@@H](NC(=O)[C@H](NC(=O)[C@H](C)NC(=O)[C@H](NC(=O)[C@H](C)NC(=O)CNC(=O)[C@@H](NC=O)C(C)C)C(C)C)C(C)C)C(C)C)C(C)C)C(=O)N[C@@H](Cc1c[nH]c2ccccc12)C(=O)NCCO [compound 12432] (For-VGA[dV]A[dV]V[dL]W[dL]W[dV]W[dL]W-NHCH2CH2OH)
## Result 6.4

## Task Hello, please tell me recorded viability for this one: CC(C)C[C@@H](NC(=O)[C@H](Cc1c[nH]c2ccccc12)NC(=O)[C@H](NC(=O)[C@H](Cc1c[nH]c2ccccc12)NC(=O)[C@H](NC(=O)[C@@H](NC(=O)[C@H](NC(=O)[C@H](C)NC(=O)[C@H](NC(=O)[C@H](C)NC(=O)CNC(=O)[C@@H](NC=O)C(C)C)C(C)C)C(C)C)C(C)C)[C@H](C)O)C(C)C)C(=O)N[C@@H](Cc1c[nH]c2ccccc12)C(=O)N[C@@H](C(=O)N[C@@H](Cc1c[nH]c2ccccc12)C(=O)NCCO)C(C)C [compound 10506] (For-VGA[dV]A[dV]V[dT]W[dV]W[dL]W[dV]W-NHCH2CH2OH)
## Result 91.3

## Task Hello, please tell me recorded viability for this one: CC(C)C[C@@H](NC(=O)[C@H](C)NC(=O)CNC(=O)[C@@H](NC=O)C(C)C)C(=O)N[C@@H](C)C(=O)N[C@H](CC(C)C)C(=O)N[C@H](C(=O)N[C@H](CC(C)C)C(=O)N[C@@H](Cc1c[nH]c2ccccc12)C(=O)N[C@@H](C(=O)N[C@@H](Cc1c[nH]c2ccccc12)C(=O)N[C@H](CC(C)C)C(=O)N[C@@H](Cc1c[nH]c2ccccc12)C(=O)N[C@@H](C(=O)N[C@@H](Cc1c[nH]c2ccccc12)C(=O)NCCO)C(C)C)[C@H](C)O)C(C)C [compound 5561] (For-VGA[dL]A[dL]V[dL]W[dT]W[dL]W[dV]W-NHCH2CH2OH)
## Result 100
